Test system: T. b. rhodesiense (STIB 900 strain, bloodstream trypomastigotes)
Test: In vitro antiprotozoal activity against T. b. rhodesiense
Type: cell-based, Trypanosoma brucei rhodesiense
Conditions: Trypanosoma brucei, read-out: IC50 Tbr (in brackets)
REPORTED METRIC: IC50 (nM)

[[record]]
compound = "Nc1nc(N)nc(Nc2ccc([As]3SCC(CO)S3)cc2)n1 (stereo not shown) [melarsoprol, reference compound]"
assay_result = 8

